Measured MIC accompanies every entry in the list below.
Test system: Pseudomonas aeruginosa
measurement_protocol: Antibacterial activity against Pseudomonas aeruginosa ATCC 27853 measured after 16 to 18 hrs
Assay type: functional
measurement_parameters: time 16-18 hrs

# example entries with known answers
{"columns": ["chemical_structure", "measured_on", "MIC"],
 "data": [
  ["COc1ccc(-c2nc(Nc3ccc(-c4nc5cc(Cl)ccc5[nH]4)cc3)c3ccccc3n2)cc1OC", "Pseudomonas aeruginosa", "> 64 µg/mL"],
  ["FC(F)(F)c1nc2ccc(Nc3nc(-c4cccs4)nc4ccccc34)cc2[nH]1", "Pseudomonas aeruginosa", "> 64 µg/mL"],
  ["Clc1ccc(-c2nc(Nc3ccc(-c4nc5ccccc5[nH]4)cc3)c3ccccc3n2)cc1", "Pseudomonas aeruginosa", "> 64 µg/mL"],
  ["Brc1ccc2[nH]c(-c3ccc(Nc4nc(-c5ccccc5)nc5ccccc45)cc3)nc2c1", "Pseudomonas aeruginosa", "> 64 µg/mL"]
]}

// query Using the record for COc1ccc(-c2nc(Nc3ccc(-c4nc5cc([N+](=O)[O-])ccc5[nH]4)cc3)c3ccccc3n2)cc1OC , report its MIC.
// result > 64 µg/mL

// query Look at this molecule and give its reported MIC. Clc1ccc(-c2nc(Nc3ccc(-c4nc5cc(Cl)ccc5[nH]4)cc3)c3ccccc3n2)cc1
// result > 64 µg/mL

// query Dear colleague, I am looking for the recorded MIC of the following molecule: O=[N+]([O-])c1ccc2[nH]c(-c3ccc(Nc4nc(-c5ccccc5)nc5ccccc45)cc3)nc2c1
// result > 64 µg/mL

// query Please look up its MIC: Fc1ccc2[nH]c(-c3ccc(Nc4nc(-c5ccccc5)nc5ccccc45)cc3)nc2c1
// result > 64 µg/mL

// query Need MIC of O=C(Nc1ccc2nc(-c3ccc(Br)cc3F)[nH]c2c1)c1ccc(Nc2nc(-c3ccccc3)nc3ccccc23)cc1 , thanks.
// result > 64 µg/mL
